FYI, the data here is from the NIST ThermoML archive (doi:10.1021/je060139a).

experiment: xn = mol fraction of the nth substance listed; details: 298.18 K, Wilhelmy plate method, x1 = 0.9
QUANTITY MEASURED: surface tension liquid-gas (mN/m)

Worked examples, 4 compounds total:
COMPOUND: CCC(=O)OCc1ccccc1 [benzyl propanoate] + CCO
UNIT ANNOTATION: mN/m
surface tension liquid-gas: 33.3
--
COMPOUND: CCOC(=O)c1ccccc1O [ethyl 2-hydroxybenzoate] + CCO
UNIT ANNOTATION: mN/m
surface tension liquid-gas: 34.18
--
COMPOUND: CCOC(=O)CC(C)=O [ethyl 3-oxobutanoate] + CCO
UNIT ANNOTATION: mN/m
surface tension liquid-gas: 31.46
--
COMPOUND: CC(=O)OCc1ccccc1 [benzyl ethanoate] + CCO
UNIT ANNOTATION: mN/m
surface tension liquid-gas: 34.8

A: COC(=O)c1ccccc1 [methyl benzoate] + CCO
B: CCOC(=O)CC(C)C [ethyl 3-methylbutanoate] + CCO
**Query** Between the entries labeled A and B , whose measured surface tension liquid-gas is lower? Select an item and report its label.
**Result** B
(B: 23.4 mN/m, A: 35.2 mN/m)

* * *

assay: refractive index (Na D-line) (dimensionless); xn = mol fraction of the nth substance listed; details: 318.15 K; 100.5 kPa; Liquid; Standard Abbe refractometry; x1 = 0.8
QUANTITY MEASURED: refractive index

COMPOUND: CCC(=O)OCc1ccccc1 [benzyl propanoate] + CCO
refractive index: 1.47516

COMPOUND: CCOC(=O)CC(C)C [ethyl 3-methylbutanoate] + CCO
refractive index: 1.38143

COMPOUND: COC(=O)c1ccccc1 [methyl benzoate] + CCO
refractive index: 1.48961

COMPOUND: CC(=O)OCc1ccccc1 [benzyl ethanoate] + CCO
refractive index: 1.47804

COMPOUND: CCOC(=O)c1ccccc1O [ethyl 2-hydroxybenzoate] + CCO
refractive index: 1.49738

COMPOUND: CCOC(=O)CC(C)=O [ethyl 3-oxobutanoate] + CCO
refractive index: 1.4024

* * *

assay: refractive index (Na D-line) (dimensionless); xn = mol fraction of the nth substance listed; settings: 318.15 K; 100.5 kPa; Liquid; Standard Abbe refractometry; x1 = 0.2
QUANTITY MEASURED: refractive index

MOLECULE: CCC(=O)OCc1ccccc1 [benzyl propanoate] + CCO
refractive index: 1.40687

MOLECULE: CC(=O)OCc1ccccc1 [benzyl ethanoate] + CCO
refractive index: 1.40506

MOLECULE: CCOC(=O)CC(C)=O [ethyl 3-oxobutanoate] + CCO
refractive index: 1.3715

MOLECULE: CCOC(=O)c1ccccc1O [ethyl 2-hydroxybenzoate] + CCO
refractive index: 1.4147

MOLECULE: CCOC(=O)CC(C)C [ethyl 3-methylbutanoate] + CCO
refractive index: 1.36447

MOLECULE: COC(=O)c1ccccc1 [methyl benzoate] + CCO
refractive index: 1.40643

* * *

test: xn = mol fraction of the nth substance listed; conditions: 308.15 K, Wilhelmy plate method, x1 = 0.85
QUANTITY MEASURED: surface tension liquid-gas (mN/m)

Worked examples, 4 molecules total:
MOLECULE: COC(=O)c1ccccc1 [methyl benzoate] + CCO
QUANTITY MEASURED: surface tension liquid-gas
ENDPOINT RESULT: 32.8
//
MOLECULE: CC(=O)OCc1ccccc1 [benzyl ethanoate] + CCO
QUANTITY MEASURED: surface tension liquid-gas
ENDPOINT RESULT: 32.8
//
MOLECULE: CCC(=O)OCc1ccccc1 [benzyl propanoate] + CCO
QUANTITY MEASURED: surface tension liquid-gas
ENDPOINT RESULT: 31.3
//
MOLECULE: CCOC(=O)CC(C)=O [ethyl 3-oxobutanoate] + CCO
QUANTITY MEASURED: surface tension liquid-gas
ENDPOINT RESULT: 29.81

1: CCOC(=O)CC(C)C [ethyl 3-methylbutanoate] + CCO
2: CCOC(=O)c1ccccc1O [ethyl 2-hydroxybenzoate] + CCO
**Query** Quick check, higher surface tension liquid-gas between 1 and 2 ? Select an item and report its label.
**Result** 2
(2: 32.03 mN/m, 1: 22.31 mN/m)

* * *

assay: refractive index (Na D-line) (dimensionless); xn = mol fraction of the nth substance listed; conditions: 298.18 K; 100.5 kPa; Liquid; Standard Abbe refractometry; x1 = 0.95
QUANTITY MEASURED: refractive index

MOLECULE: CC(=O)OCc1ccccc1 [benzyl ethanoate] + CCO
ENDPOINT RESULT: 1.49709
--
MOLECULE: CCOC(=O)CC(C)C [ethyl 3-methylbutanoate] + CCO
ENDPOINT RESULT: 1.39328
--
MOLECULE: CCC(=O)OCc1ccccc1 [benzyl propanoate] + CCO
ENDPOINT RESULT: 1.49265
--
MOLECULE: CCOC(=O)CC(C)=O [ethyl 3-oxobutanoate] + CCO
ENDPOINT RESULT: 1.4154
--
MOLECULE: COC(=O)c1ccccc1 [methyl benzoate] + CCO
ENDPOINT RESULT: 1.51112
--
MOLECULE: CCOC(=O)c1ccccc1O [ethyl 2-hydroxybenzoate] + CCO
ENDPOINT RESULT: 1.51723

* * *

assay: xn = mol fraction of the nth substance listed; settings: 298.18 K, Wilhelmy plate method, x1 = 0.55
QUANTITY MEASURED: surface tension liquid-gas (mN/m)

COMPOUND: CC(=O)OCc1ccccc1 [benzyl ethanoate] + CCO
ENDPOINT RESULT: 29.69
--
COMPOUND: CCOC(=O)c1ccccc1O [ethyl 2-hydroxybenzoate] + CCO
ENDPOINT RESULT: 28.66
--
COMPOUND: CCOC(=O)CC(C)C [ethyl 3-methylbutanoate] + CCO
ENDPOINT RESULT: 23.05
--
COMPOUND: CCOC(=O)CC(C)=O [ethyl 3-oxobutanoate] + CCO
ENDPOINT RESULT: 27.96
--
COMPOUND: COC(=O)c1ccccc1 [methyl benzoate] + CCO
ENDPOINT RESULT: 29.79
--
COMPOUND: CCC(=O)OCc1ccccc1 [benzyl propanoate] + CCO
ENDPOINT RESULT: 28.89

* * *

experiment: refractive index (Na D-line) (dimensionless); xn = mol fraction of the nth substance listed; details: 318.15 K; 100.5 kPa; Liquid; Standard Abbe refractometry; x1 = 0.45
QUANTITY MEASURED: refractive index

COMPOUND: CCOC(=O)c1ccccc1O [ethyl 2-hydroxybenzoate] + CCO
refractive index: 1.46008

COMPOUND: COC(=O)c1ccccc1 [methyl benzoate] + CCO
refractive index: 1.45059

COMPOUND: CCOC(=O)CC(C)=O [ethyl 3-oxobutanoate] + CCO
refractive index: 1.388

COMPOUND: CC(=O)OCc1ccccc1 [benzyl ethanoate] + CCO
refractive index: 1.44517

COMPOUND: CCC(=O)OCc1ccccc1 [benzyl propanoate] + CCO
refractive index: 1.44524

* * *

assay: refractive index (Na D-line) (dimensionless); xn = mol fraction of the nth substance listed; settings: 308.15 K; 100.5 kPa; Liquid; Standard Abbe refractometry; x1 = 0.25
QUANTITY MEASURED: refractive index

MOLECULE: CCOC(=O)CC(C)C [ethyl 3-methylbutanoate] + CCO
ENDPOINT RESULT: 1.3711
--
MOLECULE: CC(=O)OCc1ccccc1 [benzyl ethanoate] + CCO
ENDPOINT RESULT: 1.41929
--
MOLECULE: COC(=O)c1ccccc1 [methyl benzoate] + CCO
ENDPOINT RESULT: 1.42138
--
MOLECULE: CCOC(=O)c1ccccc1O [ethyl 2-hydroxybenzoate] + CCO
ENDPOINT RESULT: 1.4302
--
MOLECULE: CCOC(=O)CC(C)=O [ethyl 3-oxobutanoate] + CCO
ENDPOINT RESULT: 1.3797

* * *

test: xn = mol fraction of the nth substance listed; details: 298.18 K, Wilhelmy plate method, x1 = 0.8
QUANTITY MEASURED: surface tension liquid-gas (mN/m)

COMPOUND: CCOC(=O)c1ccccc1O [ethyl 2-hydroxybenzoate] + CCO
surface tension liquid-gas, mN/m: 32.25
//
COMPOUND: CCOC(=O)CC(C)C [ethyl 3-methylbutanoate] + CCO
surface tension liquid-gas, mN/m: 23.31
//
COMPOUND: CCOC(=O)CC(C)=O [ethyl 3-oxobutanoate] + CCO
surface tension liquid-gas, mN/m: 30.54
//
COMPOUND: CCC(=O)OCc1ccccc1 [benzyl propanoate] + CCO
surface tension liquid-gas, mN/m: 31.7

* * *

test: refractive index (Na D-line) (dimensionless); xn = mol fraction of the nth substance listed; settings: 298.18 K; 100.5 kPa; Liquid; Standard Abbe refractometry; x1 = 0.5
QUANTITY MEASURED: refractive index

COMPOUND: CCOC(=O)CC(C)C [ethyl 3-methylbutanoate] + CCO
refractive index: 1.38434
--
COMPOUND: CCC(=O)OCc1ccccc1 [benzyl propanoate] + CCO
refractive index: 1.45962
--
COMPOUND: CC(=O)OCc1ccccc1 [benzyl ethanoate] + CCO
refractive index: 1.46016
--
COMPOUND: CCOC(=O)c1ccccc1O [ethyl 2-hydroxybenzoate] + CCO
refractive index: 1.47593
